B1: TPR t1 (parent)
chain: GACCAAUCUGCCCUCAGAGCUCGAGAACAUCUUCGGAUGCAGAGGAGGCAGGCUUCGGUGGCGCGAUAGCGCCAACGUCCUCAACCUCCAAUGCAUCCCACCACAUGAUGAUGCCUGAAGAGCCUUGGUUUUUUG

# Variants of: B1
# PROCEDURE_DETAILS: polymerase ribozyme fitness, log enrichment relative to wild type (log ratio); higher = more active; in vitro selection for triplet polymerase activity
Listed here: items and their measured polymerase ribozyme fitness (log ratio).

{"CHANGES": "U21A A27C U78G A84U C114A", "polymerase ribozyme fitness (log ratio)": -6.87}
{"CHANGES": "U9G G45U U92C U129G", "polymerase ribozyme fitness (log ratio)": -1.65}
{"CHANGES": "G35U G63A U67G C88A C124A G127C U132A", "polymerase ribozyme fitness (log ratio)": -7.2}
{"CHANGES": "A46U C62U G113A", "polymerase ribozyme fitness (log ratio)": -2.45}
{"CHANGES": "C8A A18C U38G G61C C94U G110U C123U", "polymerase ribozyme fitness (log ratio)": -7.38}
{"CHANGES": "C11A G60U A74U C88A", "polymerase ribozyme fitness (log ratio)": -2.8}
{"CHANGES": "A29U A41C", "polymerase ribozyme fitness (log ratio)": -2}
{"CHANGES": "C64G C98U", "polymerase ribozyme fitness (log ratio)": -6.14}
{"CHANGES": "C40A G58C C72G U78G C79A", "polymerase ribozyme fitness (log ratio)": -5.64}
{"CHANGES": "U78C U96G", "polymerase ribozyme fitness (log ratio)": -0.935}
{"CHANGES": "A6C G77A", "polymerase ribozyme fitness (log ratio)": -0.571}
{"CHANGES": "C34G C89U", "polymerase ribozyme fitness (log ratio)": -7.42}
{"CHANGES": "C40U A41C", "polymerase ribozyme fitness (log ratio)": -2.44}
{"CHANGES": "C34A C53A C56A", "polymerase ribozyme fitness (log ratio)": -2.66}
{"CHANGES": "U9G A18C C56G C72A", "polymerase ribozyme fitness (log ratio)": -3.47}
{"CHANGES": "G61U C97G G113U", "polymerase ribozyme fitness (log ratio)": -5.53}
{"CHANGES": "A5U G57A G63U U78C A95C C115A", "polymerase ribozyme fitness (log ratio)": -3.19}
{"CHANGES": "A91G C102A C104A U109A", "polymerase ribozyme fitness (log ratio)": -5.59}
{"CHANGES": "G45U G63U", "polymerase ribozyme fitness (log ratio)": -2.05}
{"CHANGES": "G39U C56A A84C G113U", "polymerase ribozyme fitness (log ratio)": -4.13}
{"CHANGES": "C8G C76A C82A C114G", "polymerase ribozyme fitness (log ratio)": -4.44}
{"CHANGES": "C40U C53U C70U C72U C97U", "polymerase ribozyme fitness (log ratio)": -1.36}
{"CHANGES": "C8A C15U A46U A118G", "polymerase ribozyme fitness (log ratio)": -1.21}
{"CHANGES": "C73U A95U A111U", "polymerase ribozyme fitness (log ratio)": -2.76}
{"CHANGES": "A18C A95U C124A", "polymerase ribozyme fitness (log ratio)": -0.947}
{"CHANGES": "C53A G120C", "polymerase ribozyme fitness (log ratio)": 0.974}
{"CHANGES": "C3U C11A C73G A75U C99G A103U A121G", "polymerase ribozyme fitness (log ratio)": -7.22}
{"CHANGES": "C12A G19U G42U U92A U112C U129G", "polymerase ribozyme fitness (log ratio)": -3.59}
{"CHANGES": "G44A A121G", "polymerase ribozyme fitness (log ratio)": 1.53}
{"CHANGES": "A37G G69U", "polymerase ribozyme fitness (log ratio)": -1.08}
{"CHANGES": "A18C G61A A108U C115U C123U", "polymerase ribozyme fitness (log ratio)": -6.75}
{"CHANGES": "G69C U92G G120C", "polymerase ribozyme fitness (log ratio)": -3.22}
{"CHANGES": "C8G A46U G117C", "polymerase ribozyme fitness (log ratio)": -1.21}
{"CHANGES": "A46U G58A A83G A84C", "polymerase ribozyme fitness (log ratio)": -2.18}
{"CHANGES": "U81G G127C", "polymerase ribozyme fitness (log ratio)": -4.77}
{"CHANGES": "U55G C89G", "polymerase ribozyme fitness (log ratio)": -1.51}
{"CHANGES": "A41U U87A", "polymerase ribozyme fitness (log ratio)": -1.14}
{"CHANGES": "A68G A84G", "polymerase ribozyme fitness (log ratio)": -3.98}
{"CHANGES": "A16U C72A", "polymerase ribozyme fitness (log ratio)": -1.32}
{"CHANGES": "U109C A118U", "polymerase ribozyme fitness (log ratio)": -4.34}
{"CHANGES": "C12A A26C C56G G63U C89G G107A U116C", "polymerase ribozyme fitness (log ratio)": -7.06}
{"CHANGES": "A18G U54A G77A U109G", "polymerase ribozyme fitness (log ratio)": -3.13}
{"CHANGES": "U7C G17A G63U A121C", "polymerase ribozyme fitness (log ratio)": -1.33}
{"CHANGES": "G47A U78A", "polymerase ribozyme fitness (log ratio)": -1.09}
{"CHANGES": "A105U U116C", "polymerase ribozyme fitness (log ratio)": -3.7}
{"CHANGES": "A68G U106A", "polymerase ribozyme fitness (log ratio)": -3.22}
{"CHANGES": "A41U G113C", "polymerase ribozyme fitness (log ratio)": -3.1}
{"CHANGES": "U81G A118U", "polymerase ribozyme fitness (log ratio)": -2.58}
{"CHANGES": "C72U A74U U81C", "polymerase ribozyme fitness (log ratio)": -0.388}
{"CHANGES": "C8G C20U G61A C101U", "polymerase ribozyme fitness (log ratio)": -0.517}
{"CHANGES": "C8U G52C", "polymerase ribozyme fitness (log ratio)": -0.0551}
{"CHANGES": "C13A C56U U59A", "polymerase ribozyme fitness (log ratio)": -2.77}
{"CHANGES": "U7C C49U A50C C99U A100U G117U", "polymerase ribozyme fitness (log ratio)": -6.3}
{"CHANGES": "G19U A74U G113A", "polymerase ribozyme fitness (log ratio)": -2.19}
{"CHANGES": "A6C G52A U81C A121C C123A", "polymerase ribozyme fitness (log ratio)": -0.955}
{"CHANGES": "C12U G71A", "polymerase ribozyme fitness (log ratio)": -0.123}
{"CHANGES": "A6U C8U G48U", "polymerase ribozyme fitness (log ratio)": -0.267}
{"CHANGES": "C123A G128U", "polymerase ribozyme fitness (log ratio)": -0.255}
{"CHANGES": "G17A A43U C88A U96A U129A", "polymerase ribozyme fitness (log ratio)": -3.98}
{"CHANGES": "G71U U129A", "polymerase ribozyme fitness (log ratio)": -1.8}
{"CHANGES": "A2G C13G C86U C123A U133C", "polymerase ribozyme fitness (log ratio)": 0.0468}
{"CHANGES": "C8A C49U C72A A100C U106G U109A U132C", "polymerase ribozyme fitness (log ratio)": -4.59}
{"CHANGES": "C8G C40G U81G C82U", "polymerase ribozyme fitness (log ratio)": -0.759}

Cited source: the RNAGym collection of RNA variant scans (doi:10.1073/pnas.2313332121)
